experimental-protocol: qHTS for Inhibitors of ATXN expression: Validation (AID 588378); also: nearly all actives have a fitted effect of over 75% in size
condition-label: cell-based ATXN2 expression reporter assay, luminescence; series mostly up to 57.1 µM
Results filed as inconclusive are left out. Activity calls are given as the source filed them. Calls follow the shape of the dose curve; as a rule, active = well fitted inhibition curve with a large enough effect; inconclusive = small, poorly fitted or top-dose-only effect; inactive = no such curve, though single readings can be large or run the other way.
# output must be one of active, inactive

-- ask What outcome does the record of this test show for CCCN1CC[C@@H]2c3cc(O)ccc3CC[C@@H]21 ?
-- reply inactive

-- ask What would you report for NC(=O)c1cc(N2CC2)c([N+](=O)[O-])cc1[N+](=O)[O-] ?
-- reply inactive

-- ask Another: N[C@@H](Cn1ccc(=O)[nH]c1=O)C(=O)O
-- reply inactive

-- ask One more molecule: COc1ccc2c(c1)/C(=C/c1cnc[nH]1)C(=O)N2
-- reply active

-- ask Entry to check: NC(=O)CI
-- reply inactive

-- ask What about NCC(CP(=O)(O)O)c1ccc(Cl)cc1 (configuration not stated) ?
-- reply inactive

-- ask What would you report for CC(C)(C)c1o[nH]c(=O)c1CC(N)C(=O)O (configuration not stated) ?
-- reply inactive

-- ask # repeat for C=CCN1CCC23c4c5ccc(O)c4O[C@H]2C(=O)CC[C@@]3(O)C1C5 (some centres not stated)
-- reply inactive

-- ask Item: NC(Cc1cc(O)c(O)cc1O)C(=O)O (configuration not stated)
-- reply inactive

-- ask Let us now turn to CCCN(CCC)C1Cc2cc(OC)c(OC)cc2C1
-- reply inactive

-- ask Likewise for Oc1ccc2c3c1O[C@H]1c4[nH]c5ccccc5c4C[C@@]4(O)C(C2)N(CC2CC2)CCC314 (some centres not stated) ?
-- reply active

-- ask Next molecule: NCC(O)c1cc(O)c(O)cc1F (configuration not stated)
-- reply inactive

---

Test system: Dd2
experimental-protocol: qHTS profiling for inhibitors of Plasmodium falciparum proliferation (AID 504749); also: nearly all actives have a fitted effect of over 60% in size
condition-label: P. falciparum in erythrocytes, SYBR Green DNA, 72 h; series mostly up to 28.7 µM
Inconclusive results are not listed. Calls of active or inactive are those of the source. Calls follow the shape of the dose curve; as a rule, active = well fitted inhibition curve with a large enough effect; inconclusive = small, poorly fitted or top-dose-only effect; inactive = flat fitted curve, though single readings scatter.
Please state which outcome applies, choosing from Y (active), N (inactive)

-- ask How did this test come out for CCC1(c2ccccc2)C(=O)NC(=O)N(C(=O)c2ccccc2)C1=O (stereo not given) ?
-- reply N

-- ask Next compound up: C=CCN1CC[C@]23c4c5ccc(O)c4O[C@H]2[C@@H](O)C=C[C@H]3[C@H]1C5
-- reply N

-- ask Follow-up item: COc1ccc(OC)c(C(O)C(C)N)c1 (stereo not given)
-- reply N

-- ask S=C(S)N1CCNCC1 ?
-- reply N

-- ask Moving on to the next compound: CCC(C)(S(=O)(=O)CC)S(=O)(=O)CC
-- reply N

-- ask And CC(=O)OC1CN2CCC1CC2 (stereo not given) ?
-- reply N

-- ask Please do the same for ClCC1CO1 (stereo not given) as well.
-- reply N

-- ask // repeat for C/C(=C\c1csc(C)n1)[C@@H]1C[C@@H]2O[C@]2(C)CCC[C@H](C)[C@H](O)[C@@H](C)C(=O)C(C)(C)[C@@H](O)CC(=O)O1 and report
-- reply Y

-- ask Same question for F/C(COc1ccc2c(c1)[nH]c1ccccc12)=C1/CN2CCC1CC2 please.
-- reply Y

-- ask Also, Clc1ccccc1Cl please.
-- reply N

-- ask And for Oc1cccc[c]1[Hg][Cl] ?
-- reply Y

-- ask Then this compound: O=C(OCCN1CCCCC1)C(O)(c1ccccc1)c1ccccc1
-- reply N

-- ask # repeat for CCOc1ccc2c3c1O[C@H]1[C@@H](O)C=C[C@H]4[C@@H](C2)N(C)CC[C@@]341
-- reply N

-- ask Entry O=C1CN=C(c2ccccc2)c2cc(Cl)ccc2N1CC1CC1 please
-- reply N

-- ask Lookup c1ccc2cc(CC3=NCCN3)ccc2c1
-- reply N
